# target.of.assay: Adenosine receptor A3 (Homo sapiens, UniProt P0DMS8)
# Sequence (P0DMS8 whole entry): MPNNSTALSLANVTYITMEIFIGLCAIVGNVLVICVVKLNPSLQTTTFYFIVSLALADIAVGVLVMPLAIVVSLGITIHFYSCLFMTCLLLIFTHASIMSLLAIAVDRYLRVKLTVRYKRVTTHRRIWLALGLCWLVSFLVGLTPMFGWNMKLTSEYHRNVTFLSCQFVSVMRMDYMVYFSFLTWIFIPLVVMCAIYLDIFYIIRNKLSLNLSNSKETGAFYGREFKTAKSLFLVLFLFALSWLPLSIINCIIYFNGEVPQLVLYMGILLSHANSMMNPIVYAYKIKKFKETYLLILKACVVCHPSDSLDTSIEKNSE
# test: Displacement of radioligand from human recombinant adenosine A3 receptor at 21 degC after 60 mins by cell-based microplate scintillation counting
So basically: is Ki under 0.5 µM? Then true. Not under? Then false.

Solved cases below.
NCc1ccc(Cn2nnc3c(-c4ccco4)nc(N)nc32)cc1
false
N#Cc1cccc(Cn2nnc3c(-c4ccco4)nc(N)nc32)c1
false
Nc1nc(-c2ccco2)c2nnn(Cc3ccc4[nH]ncc4c3)c2n1
false
Nc1nc(-c2ccco2)c2nnn(Cc3ccco3)c2n1
true

q: Does Nc1nc(-c2ccco2)c2nnn(Cc3cccc(C(F)(F)F)c3)c2n1 have Ki strictly under 0.5 µM?
a: false

* * *

# target.of.assay: UniProtKB P0DMS8
# test: Displacement of radioligand from human recombinant adenosine A3 receptor at 21 degC after 60 mins by cell-based microplate scintillation counting
measurement.label: log10(Ki) (log10 of the value in nM)
For clarity, the numbers are log10 values of Ki expressed in nM.

Would you please look over these solved cases?
Nc1nc(-c2ccco2)c2nnn(Cc3ccc4[nH]ccc4c3)c2n1
2.78
Nc1cccc(Cn2nnc3c(-c4ccco4)nc(N)nc32)c1
2.90
Nc1nc(-c2ccco2)c2nnn(CC3CCCCC3)c2n1
3.06
Nc1nc(-c2ccco2)c2nnn(Cc3cnccn3)c2n1
3.35
Nc1nc(-c2ccco2)c2nnn(Cc3ccc(N)c(F)c3)c2n1
3.03
Nc1nc(-c2ccco2)c2nnn(Cc3ccccc3)c2n1
2.45
N#Cc1ccc(Cn2nnc3c(-c4ccco4)nc(N)nc32)cc1
3.02
COc1ccccc1Cn1nnc2c(-c3ccco3)nc(N)nc21
2.53
Nc1nc(-c2ccco2)c2nnn(Cc3ccc(F)cc3F)c2n1
3.07
Nc1ccc(Cn2nnc3c(-c4ccco4)nc(N)nc32)c(F)c1
2.84

// each compound listed below needs its log10(Ki)
1. CC(C)N(C)C(=O)c1cccc(Cn2nnc3c(-c4ccco4)nc(N)nc32)c1
2. Nc1nc(-c2cncs2)c2nnn(Cc3ccccc3F)c2n1
3. Nc1nc(-c2ccco2)c2nnn(Cc3ccc(N)c(O)c3)c2n1
4. Nc1ccc(Cn2nnc3c(-c4ccco4)nc(N)nc32)cc1
5. CC(C)c1cc(Cn2nnc3c(-c4ccco4)nc(N)nc32)ccc1N
6. Nc1nc(-c2ncco2)c2nnn(Cc3ccccc3F)c2n1

a:
1. 3.39
2. 3.25
3. 3.13
4. 2.88
5. 2.40
6. 3.32

* * *

# target.of.assay: Adenosine receptor A2a (Homo sapiens)
# Sequence (P29274 whole entry): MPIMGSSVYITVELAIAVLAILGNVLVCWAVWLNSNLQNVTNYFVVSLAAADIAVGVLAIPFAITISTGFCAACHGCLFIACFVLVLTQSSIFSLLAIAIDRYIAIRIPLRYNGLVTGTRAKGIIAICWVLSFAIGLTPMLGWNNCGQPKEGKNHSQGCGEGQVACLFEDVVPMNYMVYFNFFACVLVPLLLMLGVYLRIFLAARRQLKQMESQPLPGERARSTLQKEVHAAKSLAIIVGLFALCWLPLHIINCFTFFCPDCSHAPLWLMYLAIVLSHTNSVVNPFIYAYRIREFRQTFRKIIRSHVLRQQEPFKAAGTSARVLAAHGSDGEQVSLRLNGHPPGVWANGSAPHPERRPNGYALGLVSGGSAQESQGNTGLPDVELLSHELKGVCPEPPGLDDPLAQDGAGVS
# test: Displacement of radioligand from human recombinant adenosine A2A receptor at 21 degC after 90 mins by cell-based microplate scintillation counting
Task for the reader: assign each of the following compounds its reported log10 of Ki.
For clarity, the numbers are log10 values of Ki expressed in nM.

CC(C)c1cc(Cn2nnc3c(-c4ccco4)nc(N)nc32)ccc1N
0.18
Nc1nc(-c2ncco2)c2nnn(Cc3ccccc3F)c2n1
1.61
Nc1nc(-c2ccco2)c2nnn(Cc3cccc(O)c3)c2n1
0.60
Nc1cccc(Cn2nnc3c(-c4ccco4)nc(N)nc32)c1
0.40
NC(=O)c1cccc(Cn2nnc3c(-c4ccco4)nc(N)nc32)c1
1.05

q: Respond only with log10 of Ki recorded for Nc1nc(-c2ccco2)c2nnn(Cc3ccsc3)c2n1
a: 0.28

* * *

# target.of.assay: Adenosine receptor A2b (Homo sapiens)
# Sequence (P29275 whole entry): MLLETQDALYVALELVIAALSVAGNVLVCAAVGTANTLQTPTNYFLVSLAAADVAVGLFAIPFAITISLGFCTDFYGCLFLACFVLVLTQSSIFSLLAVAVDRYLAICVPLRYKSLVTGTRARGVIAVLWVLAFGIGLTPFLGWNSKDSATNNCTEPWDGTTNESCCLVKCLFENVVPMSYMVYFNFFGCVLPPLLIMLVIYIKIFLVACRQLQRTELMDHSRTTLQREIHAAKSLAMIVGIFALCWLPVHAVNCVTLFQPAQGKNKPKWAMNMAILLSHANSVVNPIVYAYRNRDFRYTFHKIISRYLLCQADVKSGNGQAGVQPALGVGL
# test: Displacement of radioligand from human recombinant adenosine A2B receptor at 21 degC after 60 mins by cell-based microplate scintillation counting
measurement.label: pKi
Numbers only, as −log10 of the molar value.

Would you please look over these solved cases?
Nc1nc(-c2cnn[nH]2)c2nnn(Cc3ccccc3F)c2n1
5.89
Cc1csc(-c2nc(N)nc3c2nnn3Cc2ccccc2F)n1
7.28
Nc1nc(-c2ccco2)c2nnn(Cc3cccc(Cl)c3)c2n1
6.80
Nc1nc(-c2ccco2)c2nnn(Cc3ccc([N+](=O)[O-])cc3)c2n1
6.36
N#Cc1ccc(Cn2nnc3c(-c4ccco4)nc(N)nc32)cc1
6.05

q: Respond only with pKi recorded for Nc1nc(-c2ccco2)c2nnn(Cc3ccc(F)cc3F)c2n1
a: 6.65
